System: IL-17
test description: Con A-induced cytokine production in splenocytes, IL-17
Format: cell-based
test parameters: Mus musculus, Splenocyte, 48 h, read-out: IC50 IL-17
The entries below come with measured IC50 values attached.
// note: answer is a bare numeric in nM

Worked set:
# compound, study target, assay metric, output unit, reported measurement
rows = [
    ("CCN(CCCC(C)Nc1ccnc2cc(Cl)ccc12)CCNC(=O)C(F)(F)C1CCN(CCOCCOC)CC1 (stereo not drawn)", "IL-17", "IC50", "nM", 250),
    ("CCN(CC)CCCC(C)Nc1ccnc2cc(Cl)ccc12 (stereo not drawn) [Compound 1, chloroquine, reference compound]", "IL-17", "IC50", "nM", 650),
]

Moving on to another compound below.
Check the records and state IC50 for CCN(CCCC(C)Nc1ccnc2cc(Cl)ccc12)CCNC(=O)CCOCCOCCOCCOCCOCC(=O)Nc1ccc2c(c1)OC(F)(F)O2 (stereo not drawn) 1760
